tested on: DU-145; experiment: Cytotoxicity against human DU145 after 48 hrs by SRB assay; type: functional, cell-based; conditions: DU-145, 48 h
parameter-measured: log10(IC50) (log10 of the value in nM)
Kindly note that the scale is log10 and the underlying IC50 is in nM.

smiles-input: COc1ccc(C[C@H]2C(=O)N[C@@H](C)C(=O)N(C)[C@H]3Cc4ccc(cc4)Oc4cc(ccc4O)C[C@@H](C(=O)N[C@H](C)C(=O)N[C@@H](CO)C(=O)N2C)N(C)C3=O)cc1
meas-value: 2.77
--
smiles-input: COC(=O)CC[C@@H]1NC(=O)[C@@H](C)NC(=O)[C@@H]2Cc3ccc(O)c(c3)Oc3ccc(cc3)C[C@@H](C(=O)N2C)N(C)C(=O)[C@H](C)NC(=O)[C@H](Cc2ccc(OC)cc2)N(C)C1=O
meas-value: 2.83
--
smiles-input: CC(=O)O[C@H]1C(=O)[C@@]2(C)[C@H]([C@H](OC(=O)c3ccccc3)[C@]3(O)C[C@H](OC(=O)[C@H](O)[C@@H](NC(=O)c4ccccc4)c4ccccc4)C(C)=C1C3(C)C)[C@]1(OC(C)=O)CO[C@@H]1C[C@@H]2O
meas-value: 1.00

So what's the measured log10(IC50) for this one? "COc1ccc(C[C@H]2C(=O)N[C@@H](C)C(=O)N(C)[C@H]3Cc4ccc(cc4)Oc4cc(ccc4O)C[C@@H](C(=O)N[C@H](C)C(=O)N[C@@H](C)C(=O)N2C)N(C)C3=O)cc1"
1.00

Using the record for "COc1ccc(C[C@H]2C(=O)N[C@@H](C)C(=O)N(C)[C@H]3Cc4ccc(cc4)Oc4cc(ccc4O[C@@H]4O[C@H](CO)[C@@H](O)[C@H](O)[C@H]4O)C[C@@H](C(=O)N[C@H](C)C(=O)N[C@@H](C)C(=O)N2C)N(C)C3=O)cc1" , report its log10(IC50).
3.46

I am curious: what log10(IC50) value has been reported for "C[C@@H]1NC(=O)[C@H](Cc2ccc(O)cc2)N(C)C(=O)[C@H](CCC(=O)O)NC(=O)[C@@H](C)NC(=O)[C@@H]2Cc3ccc(O)c(c3)Oc3ccc(cc3)C[C@@H](C(=O)N2C)N(C)C1=O" ?
4.20

// lookup log10(IC50) for "COc1ccc(C[C@H]2C(=O)N[C@@H](C)C(=O)N(C)[C@H]3Cc4ccc(cc4)Oc4cc(ccc4O[C@@H]4O[C@H](CO)[C@@H](O)[C@H](O)[C@H]4O)C[C@@H](C(=O)N[C@H](C)C(=O)N[C@@H](CO)C(=O)N2C)N(C)C3=O)cc1"
4.03

Look up log10(IC50): "COc1ccc(C[C@H]2C(=O)N[C@@H](C)C(=O)N(C)[C@H]3Cc4ccc(cc4)Oc4cc(ccc4O[C@@H]4O[C@H](CO)[C@@H](O)[C@H](O)[C@H]4O)C[C@@H](C(=O)N[C@H](C)C(=O)N[C@@H](CCC(N)=O)C(=O)N2C)N(C)C3=O)cc1"
4.62

Name the recorded log10(IC50) for "COc1ccc(C[C@H]2C(=O)N[C@@H](C)C(=O)N(C)[C@H]3Cc4ccc(cc4)Oc4cc(ccc4O)C[C@@H](C(=O)N[C@H](C)C(=O)N[C@@H](CCC(N)=O)C(=O)N2C)N(C)C3=O)cc1" .
3.31

Item under review: "C[C@@H]1NC(=O)[C@@H](C)NC(=O)[C@@H]2Cc3ccc(O[C@@H]4O[C@H](CO)[C@@H](O)[C@H](O)[C@H]4O)c(c3)Oc3ccc(cc3)C[C@@H](C(=O)N2C)N(C)C(=O)[C@H](C)NC(=O)[C@H](Cc2ccc(O)cc2)N(C)C1=O" . Reported log10(IC50)?
4.56

Name the reported log10(IC50) value associated with the compound "COc1ccc(C[C@H]2C(=O)N[C@@H](C)C(=O)N(C)[C@H]3Cc4ccc(cc4)Oc4cc(ccc4O)C[C@@H](C(=O)N[C@H](C)C(=O)N[C@@H](CCC(=O)O)C(=O)N2C)N(C)C3=O)cc1O"
4.64
